# credit: ChEMBL document CHEMBL1133187

Quick record of log10 IC50 values for Cyclooxygenase (Rattus norvegicus, UniProt P35355+Q63921).
All values: base-10 log of IC50 in nM.

Sample answers from the record:
{"smiles": "CC(C)CN1CC/C(=C\\c2cc(C(C)(C)C)c(O)c(C(C)(C)C)c2)S1(=O)=O", "log10 IC50": 2.61}
{"smiles": "CC(C)(C)c1cc(/C=C2\\CCN(c3ccncc3)S2(=O)=O)cc(C(C)(C)C)c1O", "log10 IC50": 2.61}
{"smiles": "CC(C)(C)c1cc(/C=C2\\CCN(O)S2(=O)=O)cc(C(C)(C)C)c1O", "log10 IC50": 1.00}
{"smiles": "CCCN1CC/C(=C/c2cc(C(C)(C)C)c(O)c(C(C)(C)C)c2)S1(=O)=O", "log10 IC50": 1.08}
{"smiles": "CC(C)(C)c1cc(/C=C2\\CCN(CC(=O)O)S2(=O)=O)cc(C(C)(C)C)c1O", "log10 IC50": 3.53}

Provide value of log10 IC50 for this record tested with Cyclooxygenase (Rattus norvegicus, UniProt P35355+Q63921): `CON(C)C(=O)N1CC/C(=C\c2cc(C(C)(C)C)c(O)c(C(C)(C)C)c2)S1(=O)=O`
2.00

Param readout = log10 IC50; param system = Cyclooxygenase (Rattus norvegicus, UniProt P35355+Q63921); param query = `CC(C)(C)c1cc(/C=C2\CCNS2(=O)=O)cc(C(C)(C)C)c1O` ; response: value
1.48
